Biological target: KRAS G12D (Homo sapiens (Human), UniProt P01116, G12D)
Sequence (P01116 other isoform, or with tags, fused parts or gaps G12D (already in the parent)): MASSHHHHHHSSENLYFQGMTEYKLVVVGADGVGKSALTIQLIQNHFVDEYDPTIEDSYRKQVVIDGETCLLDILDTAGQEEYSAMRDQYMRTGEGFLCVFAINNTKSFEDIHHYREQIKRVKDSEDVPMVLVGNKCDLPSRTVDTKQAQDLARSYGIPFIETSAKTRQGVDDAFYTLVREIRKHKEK
Experiment: Inhibitory activity on KRAS G12D nucleotide (GDP-GTP) exchange reaction in vitro (SOS1-dependent, BODIPY FL GDP)
Conditions: BODIPY FL GDP-bound KRAS G12D, compound 25° C. 1 hour, then SOS1 and GMPPNP 30 minutes
Measurement Name: IC50
Entry format: amount then unit.

## Input Which IC50 value is on record for C#Cc1cccc2cc(O)cc(C3Cc4nc(OCC5(CN(C)C)CC5)nc(N5CC6CCC(C5)N6)c4CO3)c12 (stereo not shown) ?
## Output 3 nM

## Input And CN(C)CC1(COc2nc3c(c(N4CC5CCC(C4)N5)n2)CCN(c2cc(O)cc4cccc(Br)c24)C3)CC1(F)F (stereo not shown) ?
## Output 9.7 nM

## Input And CO[C@@H]1C[C@@H](COc2nc3c(c(N4CC5CCC(C4)N5)n2)CCN(c2cc(O)cc4cccc(Br)c24)C3)N(C)C1 ?
## Output 3.2 nM

## Input And C=Cc1cccc2cc(O)cc(C(=O)N3Cc4nc(OCC5(CN6CCOCC6)CC5)nc(N5CC6CCC(C5)N6)c4C3)c12 ?
## Output 13.5 nM

## Input And Oc1cc(N2CCc3c(nc(OCC4(CN5CC[C@@H](F)C5)CC4)nc3N3CC4CCC(C3)N4)C2)c2c(Br)cccc2c1 ?
## Output 1.5 nM

## Input And CN1C[C@H](F)C[C@H]1COc1nc2c(c(N3CC4CCC(C3)N4)n1)CCN(c1cc(O)cc3cccc(Br)c13)C2 ?
## Output 18.5 nM

## Input And CN(C)CC1(COc2nc3c(c(N4CC5CCC(C4)N5)n2)CCN(c2cc(O)cc4cccc(I)c24)C3)CC1 ?
## Output 0.7 nM
